meta.source: patent EP1379283B1

- Tested on: angiotensin-II receptor of human neuroblastoma cells (KAN-TS) (human)
- Sequence (P30556 whole entry): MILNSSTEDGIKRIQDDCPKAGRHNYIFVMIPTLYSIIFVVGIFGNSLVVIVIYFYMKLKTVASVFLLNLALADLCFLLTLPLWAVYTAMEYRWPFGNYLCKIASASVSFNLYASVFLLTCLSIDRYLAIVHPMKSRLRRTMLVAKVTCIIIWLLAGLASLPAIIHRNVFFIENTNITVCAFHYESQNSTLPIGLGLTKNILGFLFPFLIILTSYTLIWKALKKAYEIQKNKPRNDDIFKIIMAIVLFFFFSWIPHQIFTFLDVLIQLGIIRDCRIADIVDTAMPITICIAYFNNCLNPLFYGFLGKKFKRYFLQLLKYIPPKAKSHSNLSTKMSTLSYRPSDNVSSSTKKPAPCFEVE
- Procedure details: competition with 125I-Tyr4,Sar1,Ile8-angiotensin II on KAN-TS human neuroblastoma cell membranes, metallopeptide at 1 µM
Measurement name: % Inhibition at 1 µM (%)

Completed entries (count: 3):
Substance | Measurement name | Reported value
Re-complexed Sar-Arg-Val-Tyr-Ile-Cys-His-Pro-Thr (SEQ ID NO:162) (peptide) | % Inhibition at 1 µM | 20
Re-complexed Sar-Arg-Val-Tyr-Ile-His-Cys-Gly-Thr (SEQ ID NO:166) (peptide) | % Inhibition at 1 µM | 11
Re-complexed Sar-Arg-Val-Cys-Tyr-Ile-His-Pro-Thr (SEQ ID NO:164) (peptide) | % Inhibition at 1 µM | 1

a. Re-complexed Sar-Arg-Cys-Val-Tyr-Ile-His-Pro-Thr (SEQ ID NO:165) (peptide)
b. Re-complexed Sar-Arg-Val-Tyr-Cys-Ile-His-Pro-Thr (SEQ ID NO:163) (peptide)
c. Re-complexed Sar-Arg-Val-Tyr-Ile-His-Gly-Cys-Thr (SEQ ID NO:160) (peptide)
d. Re-complexed Sar-Arg-Val-Tyr-Ile-His-Cys-Pro-Thr (SEQ ID NO:161) (peptide)
Ascending sort, % Inhibition at 1 µM. Could you list the labels in the order requested?
a, c, b, d
